Recorded pIC50 for the following compounds
- target: KRAS G12D/SOS1 (Homo sapiens, UniProt Q07889)
- Sequence (Q07889 whole entry, stated change not applied): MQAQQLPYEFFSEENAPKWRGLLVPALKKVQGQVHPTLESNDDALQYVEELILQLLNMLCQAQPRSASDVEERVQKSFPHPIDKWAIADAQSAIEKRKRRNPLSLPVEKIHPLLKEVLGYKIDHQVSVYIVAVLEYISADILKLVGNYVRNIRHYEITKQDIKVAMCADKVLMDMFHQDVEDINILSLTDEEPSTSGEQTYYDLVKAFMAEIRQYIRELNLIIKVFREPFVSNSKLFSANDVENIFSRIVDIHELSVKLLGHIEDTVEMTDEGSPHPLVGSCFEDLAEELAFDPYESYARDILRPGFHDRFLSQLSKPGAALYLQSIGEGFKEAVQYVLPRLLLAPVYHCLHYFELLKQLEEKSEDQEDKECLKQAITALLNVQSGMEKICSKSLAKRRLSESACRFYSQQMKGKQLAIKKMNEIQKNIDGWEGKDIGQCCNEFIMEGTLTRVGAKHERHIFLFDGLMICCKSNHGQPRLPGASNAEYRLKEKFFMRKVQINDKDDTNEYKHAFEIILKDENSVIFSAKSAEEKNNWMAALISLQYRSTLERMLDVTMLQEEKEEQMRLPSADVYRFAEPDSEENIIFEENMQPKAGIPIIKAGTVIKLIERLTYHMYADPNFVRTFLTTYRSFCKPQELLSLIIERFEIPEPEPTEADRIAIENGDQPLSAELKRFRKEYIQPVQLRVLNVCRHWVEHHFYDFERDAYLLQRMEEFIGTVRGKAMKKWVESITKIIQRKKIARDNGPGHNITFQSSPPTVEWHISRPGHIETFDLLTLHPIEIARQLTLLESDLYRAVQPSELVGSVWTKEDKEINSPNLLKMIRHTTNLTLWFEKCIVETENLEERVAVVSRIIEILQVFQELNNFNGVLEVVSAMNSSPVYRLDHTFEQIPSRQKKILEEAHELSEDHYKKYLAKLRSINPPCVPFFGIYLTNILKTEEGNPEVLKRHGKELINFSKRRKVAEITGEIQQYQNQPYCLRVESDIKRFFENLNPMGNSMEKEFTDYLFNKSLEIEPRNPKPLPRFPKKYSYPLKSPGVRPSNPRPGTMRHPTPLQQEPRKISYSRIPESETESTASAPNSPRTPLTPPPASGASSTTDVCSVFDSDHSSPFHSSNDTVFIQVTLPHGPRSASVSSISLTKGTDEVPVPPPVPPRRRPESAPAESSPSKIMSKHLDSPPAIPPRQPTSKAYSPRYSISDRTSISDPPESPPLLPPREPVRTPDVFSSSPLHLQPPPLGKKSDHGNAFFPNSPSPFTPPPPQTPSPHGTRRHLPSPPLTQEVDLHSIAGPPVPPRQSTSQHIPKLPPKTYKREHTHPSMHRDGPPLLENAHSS
- protocolNotes: biochemical
pIC50: −log10 of the molar value.

Completed entries (count: 10):
>>> result("COc1c(C(C)N)cc(C(=O)N[C@H](C)c2cccc3c2CCC3(F)F)c2n[nH]cc12 (stereo partly drawn)")
"6.30 to 7.00"
>>> result("CNCc1ccccc1-c1csc([C@@H](C)NC(=O)c2cn(C3CC(F)(F)C3)c(=O)c3cn[nH]c23)c1")
"> 7.00"
>>> result("COc1c(N2CCNCC2)cc(C(=O)N[C@H](C)c2cccc(C(F)(F)CO)c2)c2[nH]ncc12")
"> 7.00"
>>> result("COc1c(C2CCCNC2)cc(C(=O)N[C@H](C)c2cccc(C(F)(F)CO)c2)c2[nH]ncc12 (stereo partly drawn)")
"> 7.00"
>>> result("COc1c(N2CCOCC2)cc(C(=O)N[C@H](C)c2cccc3c2CCC3(F)F)c2n[nH]cc12")
"> 7.00"
>>> result("COc1c(CN(C)C)cc(C(=O)N[C@H](C)c2cccc(C(F)(F)CO)c2)c2n[nH]cc12")
"6.30 to 7.00"
>>> result("COc1c(C2CCNCC2)cc(C(=O)N[C@H](C)c2cccc(C(F)(F)CO)c2)c2[nH]ncc12")
"> 7.00"
>>> result("COc1c(O[C@H]2CCOC2)cc(C(=O)N[C@H](C)c2cc(N)cc(C(F)(F)F)c2)c2n[nH]cc12")
"6.30 to 7.00"
>>> result("C[C@@H](NC(=O)c1cn(C2CCOCC2)c(=O)c2c[nH]nc12)c1cccc(C(F)(F)CO)c1")
"> 7.00"
>>> result("CC(=O)N1CCC(n2cc(C(=O)N[C@H](C)c3cccc4c3CCC4(F)F)c3n[nH]cc3c2=O)CC1")
"> 7.00"

compound `C[C@@H](NC(=O)c1cn(C2CC(F)(F)C2)c(=O)c2cn[nH]c12)c1cccc(C(F)(F)F)c1` , pIC50 observed: 6.30 to 7.00

compound `COc1c(-c2cnc[nH]2)cc(C(=O)N[C@H](C)c2cccc(C(F)(F)CO)c2)c2n[nH]cc12` , pIC50 observed: 6.30 to 7.00

compound `COc1c(O[C@H]2CCOC2)cc(C(=O)N[C@H](C)c2cccc3c2CCC3(F)F)c2n[nH]cc12` , pIC50 observed: 6.30 to 7.00

compound `C[C@@H](NC(=O)c1cn(C2(C)CC2)c(=O)c2cc[nH]c12)c1cccc(C(F)(F)CO)c1` , pIC50 observed: > 7.00

compound `C[C@@H](NC(=O)c1cn(C2(C)CC2)c(=O)c2cc[nH]c12)c1cccc2c1CCC2(F)F` , pIC50 observed: > 7.00

---

- target: KRAS-WT/SOS1 (Homo sapiens)
- protocolNotes: biochemical
Recorded IC50 for the following molecules

Completed entries (count: 3):
>>> result("COc1c(O[C@H]2CCOC2)cc(C(=O)N[C@H](C)c2cccc(C(F)(F)CO)c2)c2n[nH]cc12")
"0.1 to 0.5 µM"
>>> result("C[C@@H](NC(=O)c1cn(C2(C)CC2)c(=O)c2c[nH]nc12)c1cccc2c1CCC2(F)F")
"< 0.1 µM"
>>> result("C[C@@H](NC(=O)c1cn(C2(C)CC2)c(=O)c2cc[nH]c12)c1cccc(C(F)(F)CO)c1")
"< 0.1 µM"

Please find the next molecule below.
molecule `Cc1c([C@@H](C)NC(=O)c2cn(C3(C)CC3)c(=O)c3cn[nH]c23)cccc1C(F)(F)F` , IC50 observed: < 0.1 µM

---

- target: KRAS G12C/SOS1 (Homo sapiens, UniProt Q07889)
- Sequence (Q07889 whole entry, stated change not applied): as above
- protocolNotes: biochemical
pIC50: −log10 of the molar value.
Recorded pIC50 for the following compounds

Completed entries (count: 3):
>>> result("C[C@@H](NC(=O)c1cn(C2CCOCC2)c(=O)c2cc[nH]c12)c1cccc2c1CCC2(F)F")
"> 7.00"
>>> result("C[C@@H](NC(=O)c1cn(C2CCOCC2)c(=O)c2cc[nH]c12)c1cccc(C(F)(F)CO)c1")
"> 7.00"
>>> result("COc1c(-c2ccc(=O)n(C)c2)cc(C(=O)N[C@H](C)c2cccc3c2CCC3(F)F)c2n[nH]cc12")
"> 7.00"

Please find the next compound below.
Hey, KRAS G12C/SOS1 (Homo sapiens, UniProt Q07889) data for `C[C@@H](NC(=O)c1cn(C2CCOCC2)c(=O)c2c[nH]nc12)c1cccc(C(F)F)c1F` : pIC50 came out at > 7.00

---

- target: KRAS-WT/SOS1 (Homo sapiens, UniProt Q07889)
- Sequence (Q07889 whole entry): as the sequence (Q07889 whole entry, stated change not applied) above
- protocolNotes: biochemical
pIC50: −log10 of the molar value.
recordedEndpoint: pIC50

Completed entries (count: 5):
>>> result("C[C@@H](NC(=O)c1cn(C2(C)CC2)c(=O)c2cc[nH]c12)c1cccc2c1CCC2(F)F")
"> 7.00"
>>> result("CNCc1ccccc1-c1csc([C@@H](C)NC(=O)c2cn(C3CC(F)(F)C3)c(=O)c3cn[nH]c23)c1")
"> 7.00"
>>> result("COc1c(C2CCNCC2)cc(C(=O)N[C@H](C)c2cccc(C(F)(F)CO)c2)c2[nH]ncc12")
"> 7.00"
>>> result("COc1c(C2CCN(C)CC2)cc(C(=O)N[C@H](C)c2cccc(C(F)(F)CO)c2)c2[nH]ncc12")
"> 7.00"
>>> result("C[C@@H](NC(=O)c1cn(C2CC(F)(F)C2)c(=O)c2cn[nH]c12)c1cccc2c1CCC2(F)F")
"> 7.00"

compound `C[C@@H](NC(=O)c1cn(C2(C)CC2)c(=O)c2c[nH]nc12)c1cccc(C(F)(F)CO)c1` , pIC50 observed: > 7.00

compound `COc1c(O[C@H]2CCOC2)cc(C(=O)N[C@H](C)c2cccc3c2CCC3(F)F)c2n[nH]cc12` , pIC50 observed: > 7.00

compound `C[C@@H](NC(=O)c1cn(C2CCOCC2)c(=O)c2c[nH]nc12)c1cccc(C(F)F)c1F` , pIC50 observed: > 7.00

---

- target: KRAS G12D/SOS1 (Homo sapiens, UniProt Q07889)
- protocolNotes: KRAS G12D/SOS1 binding assay (HTRF)
- runParameters: Tag2-KRAS G12D with Tag1-SOS1, 10 μM GTP
recordedEndpoint: Activity Data in Kras: SOS1 Assay, G12D

>>> result("C[C@@H](NC(=O)c1cn([C@H]2CC[C@@H](C(=O)N(C)CCO)CC2)c(=O)c2c[nH]nc12)c1cccc2c1CCC2(F)F")
"C (C: 500~5 μM)"
>>> result("COc1c(OC2CC(F)(F)C2)cc(C(=O)N[C@H](C)c2cccc3c2CCC3(F)F)c2n[nH]cc12")
"C (C: 500~5 μM)"
>>> result("COc1c(N2CCOCC2)nc(C(=O)N[C@H](C)c2cccc3c2CCC3(F)F)c2n[nH]cc12")
"C (C: 500~5 μM)"
>>> result("C[C@@H](NC(=O)c1cn(C2(C)CC2)c(=O)c2cn[nH]c12)c1cccc(C(F)(F)F)n1")
"C (C: 500~5 μM)"

---

Recorded IC50 for the following molecules
- target: KRAS G12D/SOS1 (Homo sapiens)
- protocolNotes: biochemical

>>> result("COc1c(C2CCCN(C)C2)cc(C(=O)N[C@H](C)c2cccc(C(F)(F)CO)c2)c2[nH]ncc12 (stereo partly drawn) [Example 37]")
"< 0.1 µM"
>>> result("Cc1c[nH]c2c(C(=O)N[C@H](C)c3cccc4c3CCC4(F)F)cn(C3(C)CC3)c(=O)c12 [Example 21]")
"0.1 to 0.5 µM"
>>> result("C[C@@H](NC(=O)c1cn(C2(C)CC2)c(=O)c2cn[nH]c12)c1cccc(C(C)(F)F)c1F [Example 7]")
"0.1 to 0.5 µM"
>>> result("COc1c(O[C@H]2CCOC2)cc(C(=O)N[C@H](C)c2cccc(C(F)(F)CO)c2)c2n[nH]cc12 [Example 30]")
"0.1 to 0.5 µM"

Please find the next molecule below.
molecule COc1c(C2CCN(C)CC2)cc(C(=O)N[C@H](C)c2cccc(C(F)(F)CO)c2)c2[nH]ncc12 [Example 34] , IC50 observed: < 0.1 µM

---

Recorded IC50 for the following molecules
- target: KRAS G12C/SOS1 (Homo sapiens, UniProt Q07889)
- protocolNotes: biochemical

>>> result("C[C@@H](NC(=O)c1cn(C2CCOCC2)c(=O)c2c[nH]nc12)c1cccc(C(F)(F)CO)c1 [Example 1]")
"< 100 nM"

Hey, KRAS G12C/SOS1 (Homo sapiens, UniProt Q07889) data for Cc1nc(N[C@H](C)c2cccc(C(F)(F)CO)c2)c2c(n1)N(C)C(=O)N(C1CCOCC1)C2 [Example 25] : IC50 came out at 100 to 500 nM

Hey, KRAS G12C/SOS1 (Homo sapiens, UniProt Q07889) data for COc1c(C2CCOCC2)cc(C(=O)N[C@H](C)c2cccc3c2CCC3(F)F)c2n[nH]cc12 [Example 16] : IC50 came out at 100 to 500 nM

Hey, KRAS G12C/SOS1 (Homo sapiens, UniProt Q07889) data for Cc1nc(N[C@H](C)c2cccc3c2CCC3(F)F)c2c(n1)N(C)C(=O)N(C1CCOCC1)C2 [Example 26] : IC50 came out at 100 to 500 nM

Hey, KRAS G12C/SOS1 (Homo sapiens, UniProt Q07889) data for C[C@@H](NC(=O)c1cn(C2CCOCC2)c(=O)c2cc[nH]c12)c1cccc(C(F)F)c1F [Example 40] : IC50 came out at < 100 nM
